Source listed as patent EP4582447A1.

target: T1, Human VEGFA165 (human, UniProt P15692-4 27-191); experiment: competition ELISA on coated VEGFA, competitor VEGFR2-ECD-Fc 1 nM
T1 construct: treated as the same molecule; also called antigen VEGFA
T1 sequence (P15692 other isoform, or with tags, fused parts or gaps limits assumed): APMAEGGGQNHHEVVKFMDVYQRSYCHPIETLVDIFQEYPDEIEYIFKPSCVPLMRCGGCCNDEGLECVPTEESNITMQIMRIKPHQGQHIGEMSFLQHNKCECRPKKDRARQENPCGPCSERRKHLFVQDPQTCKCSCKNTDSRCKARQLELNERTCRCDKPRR

binder: V29 (VHH, Purified with C-terminal GGGGS-6×His) VHH: QLQLVESGGGSVQPGGSLRLSCEVSGRTFSSYTMGWFRQAPGKEREFVVAISKGGYKYDSVSLEARFTISKDNTKNTVYLQMNSLKPEDTAVYYCAGTRAYGSSRLRLANTYEYWGQGTQVTVSS
readout unit: %
Maximum inhibition rate (%): 95.3

binder: V31 (VHH, Purified with C-terminal GGGGS-6×His) VHH: QLQLVESGGGSVQPGGSLRLSCEVSGRTFASYTMGWFRQAPGKEREFVVAISKGGYKYDAVSLEARFTISKDNTKNTVYLQMNSLKPEDTAVYYCAGTRAYGSSRLRLAKTYEYWGQGTQVTVSS
readout unit: %
Maximum inhibition rate (%): 97.5

binder: V40 (VHH, Purified with C-terminal GGGGS-6×His) VHH: QLQLVESGGGSVQPGGSLRLSCEVSGRTFTSYTMGWFRQAPGKEREFVVAISKGGYKYNAVSLEARFTISKDNTKNTVYLQMNSLKPEDTAVYYCAGTRAYGSSRLRLAKTYEYWGQGTQVTVSS
readout unit: %
Maximum inhibition rate (%): 92.2

binder: V14 (VHH, Purified with C-terminal GGGGS-6×His) VHH: QLQLVESGGGSVQPGGSLRLSCEVSGRTFTSYTMGWFRQAPGKEREFVVAISKGGYKYNTVSLEARFTISKDNTKNTVYLQMNSLKPEDTAVYYCAGTRAYGSSRLRLANTYEYWGQGTQVTVSS
readout unit: %
Maximum inhibition rate (%): 94.9

binder: V43 (VHH, Purified with C-terminal GGGGS-6×His) VHH: QLQLVESGGGSVQPGGSLRLSCEVSGRTFTSYTMGWFRQAPGKEREFVVAISKGGYKYDSVSLEARFTISKDNTKNTVYLQMNSLKPEDTAVYYCAGTRAYGSSRLRLANTYEYWGQGTQVTVSS
readout unit: %
Maximum inhibition rate (%): 93.7

binder: V17 (VHH, Purified with C-terminal GGGGS-6×His) VHH: QLQLVESGGGSVQPGGSLRLSCEVSGRTFSSYTMGWFRQAPGKEREFVVAISKGGYKYDTVSLEARFTISKDNTKNTVYLQMNSLKPEDTAVYYCAATRAYGSSRLRLAKTYEYWGQGTQVTVSS
readout unit: %
Maximum inhibition rate (%): 80.4

binder: V33 (VHH, Purified with C-terminal GGGGS-6×His) VHH: QLQLVESGGGSVQPGGSLRLSCEVSGRTFSSYTMGWFRQAPGKEREFVVAISKGGYKYDSVSLEARFTISKDNTKNTVYLQMNSLKPEDTAVYYCAATRAYGSSRLRLAKTYEYWGQGTQVTVSS
readout unit: %
Maximum inhibition rate (%): 96.3

binder: V15 (VHH, Purified with C-terminal GGGGS-6×His; also called candidate antibody V15) VHH: QLQLVESGGGSVQPGGSLRLSCEVSGRTFASYTMGWFRQAPGKEREFVVAISKGGYKYDSVSLEARFTISKDNTKNTVYLQMNSLKPEDTAVYYCAGTRAYGSSRLRLAETYEYWGQGTQVTVSS
readout unit: %
Maximum inhibition rate (%): 94.6
